Kindly state amyloid nucleation score for each of the entries shown.
Assay: amyloid nucleation score (Sup35N fusion, yeast selection) (log enrichment); library NNK1; higher = more nucleation; inactive = no reads after selection;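 further: zero at mode of non-aggregating sequences after 7 days selection at 30°C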
Give bare numbers.

// below: answered substances
substance | amyloid nucleation score
VCYAKTAVFSMCGFIWSR | 0.163
NVHSYRSLRLDELVMKSMCE | 2.66

The following substances each have a reported value; give each one's amyloid nucleation score.
1. IDHSTRVNPGEPLQVLRGGL
2. VLIGIWLHLGHFEPALSM
3. PIDGTFL

1. 4.29
2. -0.133
3. -0.69

The following substances each have a reported value; give each one's amyloid nucleation score.
1. YWGARNCLLYWWYGLTTEGS
2. NFFDLLYFL
3. WKDRPRVCLFMLLNENGRQM
4. IDSVQFTLQTASHPRSDDDC
5. CLNVYNLFMSLPGVAAPPMV
6. CNFHVCLRLRDIWSRLYLVV
7. WSRTNMIYNPSVGAIYRV

0.028
0.175
-0.831
-0.143
6.9
7.16
-0.021

The following substances each have a reported value; give each one's amyloid nucleation score.
1. SFSRFVVMMKGIRAGKSSHT
2. SLQHGYVVYVIVFLDATSNT
3. TKMVWASALWAHSPVMY
4. SLCTFLGFWGHVFSLRVNRL
5. VVGSMVRSGLGPQPMTS
6. VSPDYMSYCIGVYLINLISV

[0.156, -0.186, 0.724, -0.156, 1.08, 0.354]

The following substances each have a reported value; give each one's amyloid nucleation score.
1. FDFTNGRISFAFCNNSCCPY
2. AVKEGWLFSQVVVERGWNL

2.46
-0.588

###

Test: amyloid nucleation score (Sup35N fusion, yeast selection) (log enrichment); library NNK3; higher = more nucleation; inactive = no reads after selection
readout-type: amyloid nucleation score

// below: answered substances
substance | amyloid nucleation score
NLCIWPVTDAHLSLMHYLTP | inactive
GNITTRLHFFTNGFRPSFHG | inactive
VMSCYAYYFTTRQDFPFLWD | inactive
GANSGFRGIDGLLPALDKQE | inactive
IFWSFTGT | inactive
VDTYHTFVVVLH | inactive
LLMFTFHYSPFS | 0.483
WYGVSACYGWHNVAHSSRTR | inactive
WDLRSCCDNVSTFEL | inactive
GYLYDFLPCP | -0.497

The following substances each have a reported value; give each one's amyloid nucleation score.
1. ANSNVGSLF
2. IKGIPKSIGSSSLGLHNHTV
3. NCYDSW

["inactive", "inactive", "inactive"]

The following substances each have a reported value; give each one's amyloid nucleation score.
1. INTGMASGSSGTYVSAGIEA
2. TYLLNGTILLNPCKLC

["inactive", "inactive"]

###

Experiment: amyloid nucleation score (Sup35N fusion, yeast selection) (log enrichment); library NNK1; higher = more nucleation; inactive = no reads after selection
readout-type: amyloid nucleation score

substance | amyloid nucleation score
SWNFTLLD | inactive
VISGSDVLRYPRYSNAAFRT | inactive
RYDSVFVIS | -0.129
VMMRTSSARMGLLLDVTCGN | 0.058
NVSSCDW | -1.22

The following substances each have a reported value; give each one's amyloid nucleation score.
1. VDRFEVLTYLKE
2. LVRAIIANCAYFCQFRFSLG
3. QYVPNETVDI
4. HKDVQGYVD

-0.175
0.944
1.4
1.01
